// provenance: patent US20150141375A1

Test: Safety and pharmacokinetics of CMX001 in healthy volunteers
Assay type: in vivo, human
Assay setup: blood, 0.05 mg/kg; Human, CMX001 0.050 mg/kg; analyte = label
Readout name: Cmax (ng/mL)
Numbers only, in ng/mL.

Would you mind listing Cmax for each of the following compounds?
1. Nc1ccn(C[C@@H](CO)OCP(=O)(O)OCCCOCCCC(=O)O)c(=O)n1
2. CCCCCCCCCCCCCCCCOCCCOP(=O)(O)CO[C@H](CO)Cn1ccc(N)nc1=O
3. Nc1ccn(C[C@@H](CO)OCP(=O)(O)O)c(=O)n1 [Cidofovir, cidofovir, reference compound]

Response:
1: 4.63; 2: 5.63; 3: 1.51
